# tgt: HLA A2.1 molecule (human)
# assay protocol: T2 cells, flow cytometry; P1Y variant against its natural peptide
Exercise: for every item that follows, state its recorded DC50 Y1-DC50 WT.
Give bare numbers, in h.

What the record says about YLVSEFSRM (modifications not checked) [P1Y variant of HER-2/neu 971] : DC50 Y1-DC50 WT is 2

Go through the items and report each one's DC50 Y1-DC50 WT.
1. YMAGVGSPYV (modifications not checked) [P1Y variant of HER-2/neu 773]
2. YMLGTHTMEV (modifications not checked) [gp100 177Y1]

Found:
1. 2
2. 2

Go through the items and report each one's DC50 Y1-DC50 WT.
1. YLGTHTMEV (modifications not checked) [P1Y variant of gp100 178]
2. YLYQGCQVV (modifications not checked) [P1Y variant of HER-2/neu 48]
3. YLLVVVLGV (modifications not checked) [HER-2/neu 661Y1]

Found:
[2, 0, 2]
